B1: tRNA (parent)
chain: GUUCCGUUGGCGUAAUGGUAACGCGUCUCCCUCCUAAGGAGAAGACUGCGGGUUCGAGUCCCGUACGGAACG

# Variants of: B1
# PROTOCOL: yeast fitness relative to wild type (ratio to wild type); higher = fitter; tRNA-Arg(CCU), competitive growth, 37 C, YPD
This sample holds only a part of the variants without activity.
Consider the following variants; for each one, report its yeast fitness.
Answers are plain numbers.

1) GUUCCGUUGGCGUAAUGGUAACGCGUCUCCCUCCUAAGGAGAAGACUGCGGGUUCGAGUCCCGUAAGAAACG [C66A G68A] ... 0.695

# batch size: 6; output yeast fitness per entry
1. GUUCCGUUGACGUAAUGGUAACGCGUCUCCCUCCUAAGGAGAAGACUGCGGGUUCGAGUGGCGUACGGAACG [G10A C60G C61G]
2. GUUCUGUUAGCGUAAUGGUAACGCGUCUCCCUCCUAAGGAGAAGACUGCGGGUCCGAGUCGCGUACGGAACG [C5U G9A U54C C61G]
3. GUUCCGUUGGCGUAAUGGUAACGCGUCUCCCUCCUAAGAAGUAGACUGCGGGUUCGAGUCCCGUACGGAACG [G39A A42U]
4. GUUCCGUUGGCGUAAUGGUUACGCGUCUCCCUCCUGAGGAGAAGACUGCGGGUUCGAGUCCCGUACGAAACG [A20U A36G G68A]
5. GUUCCGUUGGCGUAAUGGUAACGCGUCCCCCUCCUAAGGAGAACACUGCGGGUUCCAGUCCCGUACGGAACG [U28C G44C G56C]
6. GUUCCGUUGGCGUAAUGGUAACGCGUCUCCCUCCUAAGGAGAAAACUGCGGGUUCGAGUUCGGUACGGAACG [G44A C60U C62G]

[0.528, 0.673, 0.767, 0.574, 0.7, 0.596]
